Provenance of the data: patent US9540343B2

# assay method text: in vitro
# details: human, uninfected MT-4 cells, CC50 (nM), same protocol as Test A, CellTiter-Glo
measurement kind: CC50 at 5 days

INPUT: Which measured CC50 at 5 days value corresponds to NC(=O)c1cc(-c2cccnc2[C@H](Cc2cc(F)cc(F)c2)NC(=O)Cn2nc(C(F)(F)F)c3c2CS(=O)(=O)C3)ccc1F ?
OUTPUT: > 53200 nM

INPUT: Which measured CC50 at 5 days value corresponds to Cc1cc2ncn(C(CC(F)(F)F)C(=O)N[C@@H](Cc3cc(F)cc(F)c3)c3ncccc3-c3ccc(F)c(C(N)=O)c3)c2cc1C (single isomer, unassigned) [Example 540E] ?
OUTPUT: > 53200 nM

INPUT: Which measured CC50 at 5 days value corresponds to Cc1nc(C(F)(F)F)nn1CC(=O)N[C@@H](Cc1cc(F)cc(F)c1)c1ncccc1-c1ccc(F)c(C(N)=O)c1 ?
OUTPUT: > 53200 nM

---

# assay method text: in vitro
# details: human, uninfected MT-4 cells, CC50 (nM), same protocol as Test A, CellTiter-Glo
measurement kind: CC50 at 5 days

INPUT: Which measured CC50 at 5 days value corresponds to NC(=O)c1cc(-c2cccnc2[C@H](Cc2cc(F)cc(F)c2)NC(=O)Cc2c[nH]c3ccc(O)cc23)ccc1F ?
OUTPUT: > 53000 nM

INPUT: Which measured CC50 at 5 days value corresponds to NC(=O)c1cc(-c2cccnc2[C@H](Cc2cccc(F)c2)NC(=O)Cn2nc(C(F)(F)F)c3c2CCS(=O)(=O)C3)ccc1F ?
OUTPUT: > 53200 nM

INPUT: Which measured CC50 at 5 days value corresponds to COCc1cn(CC(=O)N[C@@H](Cc2cc(F)cc(F)c2)c2ncccc2-c2ccc(F)c(C(N)=O)c2)nc1C(F)(F)F ?
OUTPUT: > 53200 nM

INPUT: Which measured CC50 at 5 days value corresponds to CNC(=O)c1ccc(-c2cccnc2[C@H](Cc2cc(F)cc(F)c2)NC(=O)Cc2c[nH]c3ccc(O)cc23)cc1 ?
OUTPUT: > 53000 nM

INPUT: Which measured CC50 at 5 days value corresponds to COC1CN(C(=O)c2cc(C(C)C)nn2CC(=O)N[C@@H](Cc2cc(F)cc(F)c2)c2ncccc2-c2ccc(F)c(C(N)=O)c2)C1 ?
OUTPUT: > 53200 nM

INPUT: Which measured CC50 at 5 days value corresponds to NC(=O)c1cc(-c2cccnc2[C@H](Cc2cc(F)cc(F)c2)NC(=O)Cn2nc(C(F)F)cc2C(F)F)ccc1F ?
OUTPUT: > 47400 nM

---

# assay method text: in vitro
# details: human, uninfected MT-4 cells, CC50 (nM), same protocol as Test A, CellTiter-Glo
For each of the molecules below, state its CC50 at 5 days.

INPUT: Which measured CC50 at 5 days value corresponds to NC(=O)c1cc(-c2cccnc2[C@H](Cc2cc(F)cc(F)c2)NC(=O)Cn2nc3c(c2C(F)(F)F)COC3)ccc1F [Example 203D] ?
OUTPUT: > 53200 nM

INPUT: Which measured CC50 at 5 days value corresponds to NC(=O)c1cc(-c2cccnc2[C@H](Cc2cc(F)cc(F)c2)NC(=O)Cn2nc(C(F)(F)F)c3c2CCCC3=O)ccc1F [Example 79F] ?
OUTPUT: > 50600 nM

INPUT: Which measured CC50 at 5 days value corresponds to NC(=O)c1cc(-c2cccnc2[C@H](Cc2cc(F)cc(F)c2)NC(=O)Cn2cc(C(N)=O)c(C(F)(F)F)n2)ccc1F ?
OUTPUT: > 53200 nM

INPUT: Which measured CC50 at 5 days value corresponds to NS(=O)(=O)c1cccc(-c2cccnc2[C@H](Cc2cc(F)cc(F)c2)NC(=O)Cc2c[nH]c3ccc(O)cc23)c1 ?
OUTPUT: > 52500 nM

INPUT: Which measured CC50 at 5 days value corresponds to CN1Cc2c(C(F)(F)F)nn(CC(=O)N[C@@H](Cc3cc(F)cc(F)c3)c3ncccc3-c3ccc(F)c(C(N)=O)c3)c2C1 ?
OUTPUT: > 53200 nM

INPUT: Which measured CC50 at 5 days value corresponds to NC(=O)c1cc(-c2ccc[n+]([O-])c2[C@H](Cc2cc(F)cc(F)c2)NC(=O)Cn2nc(C(F)(F)F)c3c2CCS(=O)(=O)C3)ccc1F ?
OUTPUT: > 53200 nM

---

# assay method text: in vitro
# details: human, uninfected MT-4 cells, CC50 (nM), same protocol as Test A, CellTiter-Glo
measurement kind: CC50 at 5 days

INPUT: Which measured CC50 at 5 days value corresponds to NC(=O)c1cc(-c2cccnc2[C@H](Cc2cc(F)cc(F)c2)NC(=O)Cc2c[nH]c3ccc(O)cc23)ccn1 [Example 310C] ?
OUTPUT: > 53000 nM

INPUT: Which measured CC50 at 5 days value corresponds to CC(C)(C)OC(=O)N1C(=O)CC[C@H]1C(=O)N[C@@H](Cc1cc(F)cc(F)c1)c1ncccc1-c1ccc(F)c(C(N)=O)c1 ?
OUTPUT: > 53000 nM

INPUT: Which measured CC50 at 5 days value corresponds to NC(=O)c1cc(-c2cccnc2[C@H](Cc2cc(F)cc(F)c2)NC(=O)Cc2ccccc2)ccc1F ?
OUTPUT: > 53200 nM

INPUT: Which measured CC50 at 5 days value corresponds to NC(=O)c1cc(-c2cccnc2[C@H](Cc2cc(F)cc(F)c2)NC(=O)Cn2nc3c(c2C(F)F)C2CC2C3O)ccc1F (some centres unmarked) ?
OUTPUT: > 53200 nM

INPUT: Which measured CC50 at 5 days value corresponds to CC(=O)c1cn(CC(=O)N[C@@H](Cc2cc(F)cc(F)c2)c2ncccc2-c2ccc(F)c(C(N)=O)c2)nc1C(F)(F)F [Example 389B] ?
OUTPUT: > 53200 nM

---

# assay method text: in vitro
# details: human, uninfected MT-4 cells, CC50 (nM), same protocol as Test A, CellTiter-Glo
For each of the compounds below, state its CC50 at 5 days.
Return type: number; implicit unit nM.

INPUT: Which measured CC50 at 5 days value corresponds to O=C(Cn1nc(C(F)F)c2c1C(F)(F)C1CC21)N[C@@H](Cc1cc(F)cc(F)c1)c1ncccc1-c1ccc2nccnc2c1 (stereo partly drawn) ?
OUTPUT: 38000

INPUT: Which measured CC50 at 5 days value corresponds to NC(=O)c1cc(-c2cccnc2[C@H](Cc2cc(F)cc(F)c2)NC(=O)Cc2c[nH]c3ccc(F)cc23)ccc1F [Example 55F] ?
OUTPUT: 21600

INPUT: Which measured CC50 at 5 days value corresponds to NC(=O)c1cc(-c2cccnc2[C@H](Cc2cc(F)cc(F)c2)NC(=O)Cn2nc(C(F)(F)F)c3c2CC(F)(F)CC3)ccc1F ?
OUTPUT: 21200

---

# assay method text: in vitro
# details: human, uninfected MT-4 cells, CC50 (nM), same protocol as Test A, CellTiter-Glo
For each of the compounds below, state its CC50 at 5 days.
Return type: number; implicit unit nM.

INPUT: Which measured CC50 at 5 days value corresponds to COc1ccc2cc(-c3cccnc3[C@H](Cc3cc(F)cc(F)c3)NC(=O)Cc3c[nH]c4ccc(F)cc34)ccc2c1 ?
OUTPUT: 13900

INPUT: Which measured CC50 at 5 days value corresponds to NC(=O)c1cc(-c2cccnc2[C@H](Cc2cc(F)cc(F)c2)NC(=O)Cn2cc(Br)c(C(F)(F)F)n2)ccc1F ?
OUTPUT: 14700

INPUT: Which measured CC50 at 5 days value corresponds to CC(C)(C)OC(=O)N1C[C@@H](Oc2ccccc2)C[C@H]1C(=O)N[C@@H](Cc1cc(F)cc(F)c1)c1ncccc1-c1ccc(F)c(C(N)=O)c1 ?
OUTPUT: 9310

INPUT: Which measured CC50 at 5 days value corresponds to CC(C)(C)OC(=O)NCc1ccc2c(CC(=O)N[C@@H](Cc3cc(F)cc(F)c3)c3ncccc3-c3cccc(C(N)=O)c3)c[nH]c2c1 [Example 502F] ?
OUTPUT: 3050

---

# assay method text: in vitro
# details: human, CC50 (nM), uninfected MT-4 cells, same protocol as Test A, CellTiter-Glo
measurement kind: CC50 at 5 days (nM)
Return type: number; implicit unit nM.

INPUT: Which measured CC50 at 5 days value corresponds to CC(C)(CC(=O)N[C@@H](Cc1cc(F)cc(F)c1)c1ncccc1-c1ccc(F)c(C(N)=O)c1)n1ccc(C(F)(F)F)n1 (single isomer, unassigned) [Example 478E] ?
OUTPUT: 21500

INPUT: Which measured CC50 at 5 days value corresponds to CC(=O)c1c(C)n(CC(=O)N[C@@H](Cc2cc(F)cc(F)c2)c2ncccc2-c2cccc(C(N)=O)c2)c2ccccc12 [Example 495] ?
OUTPUT: 15500

INPUT: Which measured CC50 at 5 days value corresponds to NC(=O)c1cc(-c2cccnc2[C@H](Cc2cc(F)cc(F)c2)NC(=O)Cn2c3c(c4ccccc42)C(=O)CCC3)ccc1F [Example 574D] ?
OUTPUT: 52500
